Test system: HBV
experiment: microbe, parasite or virus in culture
Type: cell-based
details: Hepatitis B virus; HepG2.117 cells, 72 hours, HBV viral copy numbers in supernatant; read-out: EC50
For each entry below, report its EC50 value.

Some solved cases for reference:
INSERT INTO results (compound, measurement_name, result) VALUES
  ('CC(C)OC(=O)OCOP(=O)(CO[C@@H](C)Cc1cnn2c(N)ncnc12)OCOC(=O)OC(C)C', 'EC50', '< 1 µM'),
  ('CC(Cc1ccc2c(N)nc(F)nn12)OCP(=O)(O)O (stereo not drawn)', 'EC50', '10 to 100 µM'),
  ('Nc1ncnn2c(COCCP(=O)(O)O)ccc12', 'EC50', '< 1 µM'),
  ('CC(C)OC(=O)OCOP(=O)(CO[C@H](C)Cc1cnn2c(N)ncnc12)OCOC(=O)OC(C)C', 'EC50', '> 100 µM'),
  ('CC(C)OC(=O)OCOP(=O)(CO[C@H](C)Cc1ccc2c(N)ncnn12)OCOC(=O)OC(C)C', 'EC50', '< 1 µM');

Dear colleague, could you send me EC50 for each of the items below? Thanks.
1. CC(Cc1ccc2c(N)nc(N)nn12)OCP(=O)(O)O (stereo not drawn)
2. Nc1ncnc2c(CC3(OCP(=O)(O)O)CC3)cnn12

A:
1. 1 to 10 µM
2. 10 to 100 µM
